- measurement target: GABAA central benzodiazepine receptor
- test name: Benzodiazepine binding assay ((3H)-flunitrazepam displacement)
- condition: read-out: BZ binding assay (IC50); rat whole brain (except cerebellum) membranes, 1 nM (3H)-flunitrazepam, 3-concentration dose response curve
pIC50: −log10 of the molar value.
Measured pIC50, listed per entry for reference.

{"compound": "O=c1c2c[nH]c3ccc(N4CCN(c5ccccc5)CC4)nc3c-2nn1-c1ccccc1", "measurement target": "GABAA central benzodiazepine receptor", "pIC50": "> 6.00"}
{"compound": "CC1CN(c2ccc3[nH]cc4c(=O)n(-c5ccccn5)nc-4c3n2)CCN1 (stereo not drawn)", "measurement target": "GABAA central benzodiazepine receptor", "pIC50": "> 6.00"}
{"compound": "O=c1c2c[nH]c3ccc(N4CCNCC4)nc3c-2nn1-c1ccccc1", "measurement target": "GABAA central benzodiazepine receptor", "pIC50": "> 6.00"}
{"compound": "O=c1c2c[nH]c3ccc(N4CCCC(CO)C4)nc3c-2nn1-c1ccccc1 (stereo not drawn)", "measurement target": "GABAA central benzodiazepine receptor", "pIC50": "> 9.00"}
{"compound": "CN1CCCN(c2ccc3[nH]cc4c(=O)n(-c5ccccn5)nc-4c3n2)CC1", "measurement target": "GABAA central benzodiazepine receptor", "pIC50": "> 6.00"}
{"compound": "O=c1c2c[nH]c3ccc(N4CCOCC4)nc3c-2nn1-c1ccccc1", "measurement target": "GABAA central benzodiazepine receptor", "pIC50": "> 9.00"}
{"compound": "O=c1c2c[nH]c3ccc(N4CCOCC4)nc3c-2nn1-c1ccccn1", "measurement target": "GABAA central benzodiazepine receptor", "pIC50": "> 6.00"}
{"compound": "O=c1c2c[nH]c3c(N4CCNCC4)nccc3c-2nn1-c1ccccc1", "measurement target": "GABAA central benzodiazepine receptor", "pIC50": "< 6.00"}
{"compound": "CC1CN(c2ccc3[nH]cc4c(=O)n(-c5ccccc5)nc-4c3n2)CC(C)O1 (stereo not drawn)", "measurement target": "GABAA central benzodiazepine receptor", "pIC50": "> 6.00"}
